system-under-test: Sphingomyelinase from human placenta (human L-ASM) (Homo sapiens)
Sequence (P17405 47-631): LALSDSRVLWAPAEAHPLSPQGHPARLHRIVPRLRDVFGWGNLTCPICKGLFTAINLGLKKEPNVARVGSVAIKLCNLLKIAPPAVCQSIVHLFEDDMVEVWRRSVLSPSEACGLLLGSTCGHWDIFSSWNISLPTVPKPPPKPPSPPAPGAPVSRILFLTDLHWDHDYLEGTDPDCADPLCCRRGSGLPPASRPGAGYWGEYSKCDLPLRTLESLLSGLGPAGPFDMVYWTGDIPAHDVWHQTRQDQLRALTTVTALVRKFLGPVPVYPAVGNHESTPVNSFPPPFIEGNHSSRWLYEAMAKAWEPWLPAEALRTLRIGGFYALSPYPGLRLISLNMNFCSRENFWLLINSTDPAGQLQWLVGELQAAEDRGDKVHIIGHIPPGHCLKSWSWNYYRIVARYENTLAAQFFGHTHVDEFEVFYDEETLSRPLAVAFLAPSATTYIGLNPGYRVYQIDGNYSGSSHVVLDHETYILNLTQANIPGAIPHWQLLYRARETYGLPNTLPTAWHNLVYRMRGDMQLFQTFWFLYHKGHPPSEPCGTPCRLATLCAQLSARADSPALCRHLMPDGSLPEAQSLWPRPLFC
experimental-protocol: SMase assay using HMU-PC profluorescence substrate
Format: biochemical
applied-conditions: maximal inhibition, artificial substrate HMU-PC
result-type: Maximal resp., HMU-PC substrate (pH 5.0) (%)

Some compounds with recorded Maximal resp., HMU-PC substrate (pH 5.0):
>  <compound>
S=c1nc(C2CC2)[nH]c2ccccc12 [MLS000097294]

>  <result-type>
Maximal resp., HMU-PC substrate (pH 5.0)

>  <endpoint-result>
99.1

$$$$
>  <compound>
O=S(=O)(Nc1ccc(N=Nc2ccc(O)c3ccccc23)cc1)c1ccccc1 [MLS000707545]

>  <result-type>
Maximal resp., HMU-PC substrate (pH 5.0)

>  <endpoint-result>
93.4

$$$$

(P) O=C1CC(c2ccccc2)CC(=O)C1CS(=O)(=O)c1ccccc1 (centres unmarked) [MLS000720877]
(Q) Clc1ccc(SCCOCCN2CCCCCC2)cc1.O=C(O)C(=O)O [MLS001164567]
(R) O=c1c(O)c(-c2cccs2)oc2ccccc12 [MLS000097140]
Q: Rank the items in ascending order with respect to Maximal resp., HMU-PC substrate (pH 5.0). In your reply, arrange the labels in the requested order.
Ans: R, Q, P

###

system-under-test: Sphingomyelinase from human placenta (human L-ASM) (Homo sapiens, UniProt P17405)
experimental-protocol: SMase assay using HMU-PC profluorescence substrate
Type: biochemical
applied-conditions: maximal inhibition, artificial substrate HMU-PC
result-type: Maximal resp., HMU-PC substrate (pH 5.0) (%)

Some compounds with recorded Maximal resp., HMU-PC substrate (pH 5.0):
>  <compound>
COC(=O)C1=C(C)N(Cc2ccc(C)cc2)C(=O)/C1=C\c1ccc(O)c(OC)c1 [MLS000574110]

>  <Maximal resp., HMU-PC substrate (pH 5.0) (%)>
82.1

$$$$
>  <compound>
COc1ccc(C2=NN(C(=O)COC(=O)c3ccc(S(C)(=O)=O)c([N+](=O)[O-])c3)C(c3ccco3)C2)cc1 (stereo not shown) [MLS002248315]

>  <Maximal resp., HMU-PC substrate (pH 5.0) (%)>
31.4

$$$$

(a) COc1cc(C(=O)Nc2scc(-c3ccc(Br)cc3)c2C(=O)O)cc(OC)c1OC [MLS001164606]
(b) CCS(=O)(=O)C1=NN2C(=N)/C(=C\c3ccc(OC(=O)c4ccco4)cc3)C(=O)N=C2S1 [MLS000950682]
Q: Rank a against b by their Maximal resp., HMU-PC substrate (pH 5.0) values and give the higher one. Which one? Tell me its label.
Ans: b
(b: 79.0%, a: 51.8%)
